Molecular target: human glucagon receptor (human) (UniProt P47871)
Sequence (P47871 26-477): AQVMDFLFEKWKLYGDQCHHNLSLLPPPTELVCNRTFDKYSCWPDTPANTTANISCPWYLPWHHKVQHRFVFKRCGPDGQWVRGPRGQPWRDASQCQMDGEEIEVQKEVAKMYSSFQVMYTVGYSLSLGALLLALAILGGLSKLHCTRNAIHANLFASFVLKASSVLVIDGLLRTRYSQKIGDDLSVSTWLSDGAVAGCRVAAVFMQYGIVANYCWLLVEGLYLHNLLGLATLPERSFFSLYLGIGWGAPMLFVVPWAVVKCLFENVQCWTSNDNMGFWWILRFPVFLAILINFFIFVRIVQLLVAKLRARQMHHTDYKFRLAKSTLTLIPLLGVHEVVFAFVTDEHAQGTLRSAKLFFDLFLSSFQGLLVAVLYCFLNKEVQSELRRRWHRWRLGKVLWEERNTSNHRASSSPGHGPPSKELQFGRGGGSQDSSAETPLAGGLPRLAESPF
Test: cell-based or functional assay
ASSAY_READOUT: Relative cAMP EC50, nM (0.1% casein) (nM)

YXQGTFTSDFSXXLDKKAQXAFIEWLLEGGSSSGAPPPSGS (non-natural residues; lipidated Lys AEEA-γGlu-C18 diacid; C-term amide; synthetic construct; SITE 2: note = 2-Aminoisobutyric Acid; SITE 12: note = L-ornithine; SITE 13: note = alpha-methyl-leucine; SITE 17: note = Lysine is chemically modified through conjugation of the epsilon-amino group of the Lysine side chain with (2-[2-(2-Amino-ethoxy)-ethoxy]-acetyl)-(gamma-Glu)) [Example 173]
3.6
YXQGTXTSDXSIXLDKKAQXAFIEYLEEGGPSSGAPPPE (synthetic construct; SITE 2: note = 2-Aminoisobutyric Acid; SITE 6: note = alpha-methyl-2-fluoro-L-phenylalanine; SITE 10: note = 4-nitro-L-phenylalanine; SITE 13: note = alpha-methyl-leucine; SITE 17: note = Lysine is chemically modified through conjugation of the epsilon-amino group of the Lysine) [Example 495]
1.75
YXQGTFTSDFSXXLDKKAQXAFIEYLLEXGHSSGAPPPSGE (Aib, Orn, αMeL; AEEA2-γGlu-C18 diacid acyl; C-terminal amide; synthetic construct; SITE 2: note = 2-Aminoisobutyric Acid; SITE 12: note = L-ornithine; SITE 13: note = alpha-methyl-leucine; SITE 17: note = Lysine is chemically modified through conjugation of the epsilon-amino group of the Lysine side chain with (2-[2-(2-Amino-ethoxy)-ethoxy]-acetyl)2-(gamma-Glu)) [Example 186]
4.67
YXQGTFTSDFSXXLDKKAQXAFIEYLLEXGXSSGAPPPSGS (Aib, Orn, αMeL, 4Pal, acylated K, C-terminal amide; synthetic construct; SITE 2: note = 2-Aminoisobutyric Acid; SITE 12: note = L-ornithine; SITE 13: note = alpha-methyl-leucine; SITE 17: note = Lysine is chemically modified through conjugation of the epsilon-amino group of the Lysine side chain with (2-[2-(2-Amino-ethoxy)-ethoxy]-acetyl)2-(gamma-Glu)) [Example 183]
3.83
YXQGTXTSDYXILLDKKAQXAFIEYLEEGGPSSGEPPPE (synthetic construct; SITE 2: note = 2-Aminoisobutyric Acid; SITE 6: note = alpha-methyl-2-fluoro-L-phenylalanine; SITE 11: note = alpha-methyl-L-serine; SITE 17: note = Lysine is chemically modified through conjugation of the epsilon-amino group of the Lysine side chain with (2-[2-(2-Amino-ethoxy)-e)) [Example 469]
1.34
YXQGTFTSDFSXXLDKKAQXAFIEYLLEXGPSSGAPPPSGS (Aib, Orn, αMeL; lipidated Lys (AEEA-γGlu2-C18 diacid); C-term amide; synthetic construct; SITE 2: note = 2-Aminoisobutyric Acid; SITE 12: note = L-ornithine; SITE 13: note = alpha-methyl-leucine; SITE 17: note = Lysine is chemically modified through conjugation of the epsilon-amino group of the Lysine side chain with (2-[2-(2-Amino-ethoxy)-ethoxy]-acetyl)-(gamma-Glu)) [Example 192]
4.18
YXQGTFTSDFSXXLDKKAQXAFIEYLLEXGPSSGEPPPSGT (non-natural residues (Aib, Orn, αMeL); lipidated K; C-terminal amide; synthetic construct; SITE 2: note = 2-Aminoisobutyric Acid; SITE 12: note = L-ornithine; SITE 13: note = alpha-methyl-leucine; SITE 17: note = Lysine is chemically modified through conjugation of the epsilon-amino group of the Lysine side chain with (2-[2-(2-Amino-ethoxy)-ethoxy]-acetyl)2-(gamma-Glu)) [Example 167]
5.05
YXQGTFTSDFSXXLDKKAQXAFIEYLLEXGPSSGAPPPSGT (non-natural residues, acylated Lys, C-terminal amide; synthetic construct; SITE 2: note = 2-Aminoisobutyric Acid; SITE 12: note = L-ornithine; SITE 13: note = alpha-methyl-leucine; SITE 17: note = Lysine is chemically modified through conjugation of the epsilon-amino group of the Lysine side chain with (2-[2-(2-Amino-ethoxy)-ethoxy]-acetyl)2-(gamma-Glu)) [Example 165]
4.47
YXQGTFTSDFSXXLDKKAQXAFIEWLLEGGHSSGAPPPSGT (Aib, Orn, αMeL; K acylated AEEA-γGlu-C18 diacid; C-terminal amide; synthetic construct; SITE 2: note = 2-Aminoisobutyric Acid; SITE 12: note = L-ornithine; SITE 13: note = alpha-methyl-leucine; SITE 17: note = Lysine is chemically modified through conjugation of the epsilon-amino group of the Lysine side chain with (2-[2-(2-Amino-ethoxy)-ethoxy]-acetyl)-(gamma-Glu)) [Example 171]
3.86
YXQGTFTSDFSXXLDKKAQXAFIEYLLEXGESSGAPPPSGT (Aib, Orn, αMeL, acylated K, C-terminal amide; synthetic construct; SITE 2: note = 2-Aminoisobutyric Acid; SITE 12: note = L-ornithine; SITE 13: note = alpha-methyl-leucine; SITE 17: note = Lysine is chemically modified through conjugation of the epsilon-amino group of the Lysine side chain with (2-[2-(2-Amino-ethoxy)-ethoxy]-acetyl)2-(gamma-Glu)) [Example 180]
2.44
YXQGTFTSDFSXXLDKKAQXAFIEWLLEGGTSSGAPPPSGT (non-natural residues, AEEA-γGlu-C18 diacid acylation, C-terminal amide; synthetic construct; SITE 2: note = 2-Aminoisobutyric Acid; SITE 12: note = L-ornithine; SITE 13: note = alpha-methyl-leucine; SITE 17: note = Lysine is chemically modified through conjugation of the epsilon-amino group of the Lysine side chain with (2-[2-(2-Amino-ethoxy)-ethoxy]-acetyl)-(gamma-Glu)) [Example 177]
4.22
YXQGTFTSDXSXXLDKKAQXAFIEYLLEXGPSSGAPPPSGS (Aib, F(4CN), Orn, αMeL; lipidated Lys; C-terminal amide; synthetic construct; SITE 2: note = 2-Aminoisobutyric Acid; SITE 10: note = 4-cyano-L-phenylalanine; SITE 12: note = L-ornithine; SITE 13: note = alpha-methyl-leucine; SITE 17: note = Lysine is chemically modified through conjugation of the epsilon-amino group of the Lysine side chain with (2-[2-(2-) [Example 178]
7.29
